Cited source for all entries: patent US20250154126A1

Test: Long-term/accelerated stability of crystal forms (25° C. 60% RH and 40° C. 75% RH)
Format: physicochemical
Settings: 25° C., 60% RH, 2 months
measured endpoint: Purity % 2 months (%)
Quick note: give the figure in %, leave out the unit.

Enquiry: Given the entry N#Cc1ccc(N2CCC(Sc3ccc(COc4cccc5c4CN([C@H]4CCC(=O)NC4=O)C5=O)cn3)CC2)c(F)c1 [Crystal form D] , report its measured Purity % 2 months.
Return: 97.8

Enquiry: // repeat for N#Cc1ccc(N2CCC(Sc3ccc(COc4cccc5c4CN([C@H]4CCC(=O)NC4=O)C5=O)cn3)CC2)c(F)c1 [Crystal form U] and report
Return: 99.6

Enquiry: // repeat for N#Cc1ccc(N2CCC(Sc3ccc(COc4cccc5c4CN([C@H]4CCC(=O)NC4=O)C5=O)cn3)CC2)c(F)c1 [Crystal form E] and report
Return: 97.8

Enquiry: // repeat for N#Cc1ccc(N2CCC(Sc3ccc(COc4cccc5c4CN([C@H]4CCC(=O)NC4=O)C5=O)cn3)CC2)c(F)c1 [Crystal form Q] and report
Return: 99.5

* * *

Experiment: Hygroscopicity study of crystal forms (dynamic vapour sorption, 25° C.)
Type: physicochemical
Settings: two cycles
measured endpoint: Crystal form after hygroscopicity test

>>> meas_value("N#Cc1ccc(N2CCC(Sc3ccc(COc4cccc5c4CN([C@H]4CCC(=O)NC4=O)C5=O)cn3)CC2)c(F)c1 [Crystal form D]")
"Untransformed"
>>> meas_value("N#Cc1ccc(N2CCC(Sc3ccc(COc4cccc5c4CN([C@H]4CCC(=O)NC4=O)C5=O)cn3)CC2)c(F)c1 [Crystal form Q]")
"Untransformed"
>>> meas_value("N#Cc1ccc(N2CCC(Sc3ccc(COc4cccc5c4CN([C@H]4CCC(=O)NC4=O)C5=O)cn3)CC2)c(F)c1 [Crystal form E]")
"Untransformed"
>>> meas_value("N#Cc1ccc(N2CCC(Sc3ccc(COc4cccc5c4CN([C@H]4CCC(=O)NC4=O)C5=O)cn3)CC2)c(F)c1 [Crystal form U]")
"Untransformed"

* * *

Assay: Long-term/accelerated stability of crystal forms (25° C. 60% RH and 40° C. 75% RH)
Type: physicochemical
Conditions: 40° C., 75% RH, 6 months
Assignment: determine reported Purity % 6 months for the given compounds.
Quick note: give the figure in %, leave out the unit.

Enquiry: Given the entry N#Cc1ccc(N2CCC(Sc3ccc(COc4cccc5c4CN([C@H]4CCC(=O)NC4=O)C5=O)cn3)CC2)c(F)c1 [Crystal form U] , report its measured Purity % 6 months.
Return: 99.5

Enquiry: // repeat for N#Cc1ccc(N2CCC(Sc3ccc(COc4cccc5c4CN([C@H]4CCC(=O)NC4=O)C5=O)cn3)CC2)c(F)c1 [Crystal form D] and report
Return: 97.6

Enquiry: // repeat for N#Cc1ccc(N2CCC(Sc3ccc(COc4cccc5c4CN([C@H]4CCC(=O)NC4=O)C5=O)cn3)CC2)c(F)c1 [Crystal form Q] and report
Return: 99.1

Enquiry: // repeat for N#Cc1ccc(N2CCC(Sc3ccc(COc4cccc5c4CN([C@H]4CCC(=O)NC4=O)C5=O)cn3)CC2)c(F)c1 [Crystal form E] and report
Return: 97.4

* * *

Assignment: determine reported Purity % 1 month for the given molecules.
Experiment: Long-term/accelerated stability of crystal forms (25° C. 60% RH and 40° C. 75% RH)
Assay type: physicochemical
Conditions: 40° C., 75% RH, 1 month
Experimental: The crystal forms D, E, Q, and U of the compound of formula (I) were respectively placed under conditions of 25° C. with 60% RH and 40° C. with 75% RH to evaluate their stability.
Quick note: give the figure in %, leave out the unit.

Enquiry: Given the entry N#Cc1ccc(N2CCC(Sc3ccc(COc4cccc5c4CN([C@H]4CCC(=O)NC4=O)C5=O)cn3)CC2)c(F)c1 [Crystal form Q] , report its measured Purity % 1 month.
Return: 99.5

Enquiry: // repeat for N#Cc1ccc(N2CCC(Sc3ccc(COc4cccc5c4CN([C@H]4CCC(=O)NC4=O)C5=O)cn3)CC2)c(F)c1 [Crystal form U] and report
Return: 99.7

Enquiry: // repeat for N#Cc1ccc(N2CCC(Sc3ccc(COc4cccc5c4CN([C@H]4CCC(=O)NC4=O)C5=O)cn3)CC2)c(F)c1 [Crystal form E] and report
Return: 97.8

Enquiry: // repeat for N#Cc1ccc(N2CCC(Sc3ccc(COc4cccc5c4CN([C@H]4CCC(=O)NC4=O)C5=O)cn3)CC2)c(F)c1 [Crystal form D] and report
Return: 97.8
